System: SF-539 CNS
TEST_PROTOCOL: NCI tumour cell line growth inhibition, 48 h; in the data active = GI50 below about 0.43 µM; inactive = the rest
Lab note: assign the record to one of y = active, n = inactive

Consider the following illustrative entries.
ENTRY_SMILES | MEASUREMENT_TARGET | ASSIGNED_CATEGORY
CCN(CC)CCCCNc1c2ccc(Cl)cc2nc2ccc(OC)cc12 | SF-539 CNS | n
COc1cc(CNc2oc(-c3ccccc3)c(-c3ccccc3)c2C#N)cc(CN2CCN(C)CC2)c1O | SF-539 CNS | n
COc1ccc(S(=O)(=O)N(C(C)=O)c2ccccc2/C=C/c2cc[n+]([O-])cc2)cc1 | SF-539 CNS | y
COc1ccc2[nH]c(C(=O)OCc3ccc4c(Cl)cc(Cl)c(O)c4n3)cc2c1 | SF-539 CNS | n
COC(=O)[C@H](Cc1cn(C)cn1)NC(=O)[C@H](Cc1ccccc1)NC(=O)Nc1cc(C(F)(F)F)cc(C(F)(F)F)c1 | SF-539 CNS | n

Called result for `CN(C)CCCNc1nc2ccccc2c2[nH]c3ccccc3c12`
n

Called result for `C1=CCCC=CCC1.C[PH+](C)C.C[PH+](C)C.C[PH+](C)C.[Cl-].[Ir]`
n

Called result for `CC[C@H](C)[C@H](NC(=O)c1cccn1C)C(=O)N(C)[C@H](C[C@@H](OC(C)=O)c1nc(C(=O)N[C@@H](Cc2ccccc2)C[C@H](C)C(=O)OC)cs1)C(C)C`
y

Called result for `CC/C(=C/c1ccc(OC)cc1OC)[N+](=O)[O-]`
n
